Data credit: paper PMC5540273

- System: TAOK2
- TEST CONTEXT: concentration: 1 μM, replicates: in singlicate; n = 1;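 note: KINOMEscan kinase panel screen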
MEASURED PROPERTY: %Inh (%)

CC(C)(C)OC(=O)NC1CCCN(c2cc(-c3ccc4c(N)n[nH]c4c3)nc(N)n2)C1 (stereo not drawn) :: 0
CN1CCC(n2cnc(-c3ccc(F)cc3)c2-c2ccnc(NC3CCNCC3)n2)CC1 :: 0
COc1cc2c(Nc3cccc(NC(=O)c4ccccc4)c3)ncnc2cc1OCCCN1CCOCC1 :: 0
CS(=O)(=O)CCNCc1ccc(-c2ccc3ncnc(Nc4ccc(OCc5ccccc5)c(Cl)c4)c3c2)o1.Cl :: 0
Nc1nccc2scc(-c3ccc4c(c3)CCN4C(=O)Cc3cc(F)ccc3F)c12 :: 0
C[C@H]1CC[C@@H](C(=O)Nc2ccccc2)CN1c1cc(-c2ccc3c(N)n[nH]c3c2)nc(N)n1 :: 0
CCC(CC)(CC)n1cnc2c(N)ncnc21 :: 2
Cc1ccc(NC(=O)c2cccc(C#N)c2)cc1-c1ccc(C(=O)Nc2ccncc2)cc1 :: 23
Cl.c1ccc(Cn2ncc3cc(Nc4ncnc5ccccc45)ccc32)cc1 :: 0
Nc1nc(-c2ccc3c(N)n[nH]c3c2)cc(N2CCCCC2)n1 :: 0
Cn1cc(-c2ccc3c(c2)CCN3C(=O)Cc2cccc(C(F)(F)F)c2)c2c(N)ncnc21 :: 0
CCCc1ccc(S(=O)(=O)NC2CCN(c3ccnc(Nc4ccc(OC)cc4)n3)C2)cc1 (stereo not drawn) :: 0
COc1ccc(-c2oc3ncnc(N)c3c2-c2ccc(OC)cc2)cc1 :: 0
Fc1cccc(COc2ccc(Nc3ncnc4nn5ccccc5c34)cc2Cl)c1 :: 0
Clc1ccc(-c2cc(-c3c[nH]nc3-c3ccccn3)ccn2)cc1 :: 0
Cc1cccc(-c2nc(Nc3ccc4[nH]nnc4c3)c3ccccc3n2)n1 :: 0
CC(C)N1CCC(n2cnc(-c3ccc(F)cc3)c2-c2ccnc(N)n2)CC1 :: 0
c1ccc(-c2ccc3c(-c4ccnc(Nc5ccc6c(c5)OCCO6)n4)cnn3n2)cc1 :: 0
CCn1c(-c2ccncc2)nc2cnccc21 :: 13
Cl.Cn1ccc(-c2cccc(Nc3ccnc4cc(-c5nccs5)ccc34)c2)n1 :: 0
CCc1nc(-c2cccc(C)c2)c(-c2ccnc(NC(=O)c3ccccc3)c2)s1 :: 0
FC(F)(F)c1ccc(-c2nn3ncccc3c2-c2ccnc(Nc3cccc(C(F)(F)F)c3)n2)cc1 :: 32
N#Cc1ccc(Oc2ccc(Nc3ncnc4cc[nH]c34)cc2Cl)cc1 :: 0
Cc1cc(N2CCC(NS(=O)(=O)c3ccc(F)cc3)CC2)nc(Nc2cccc(C#N)c2)n1.O=C(O)C(F)(F)F :: 0
O=C(Nc1ccccc1F)NC1CCN(c2ccnc(Nc3ccc(F)cc3)n2)C1 (stereo not drawn) :: 0
CNc1nccc(-c2c(-c3ccc(F)cc3)ncn2C2CCN(C)CC2)n1 :: 7
Cn1ccc2ncnc(Oc3ccc(NC(=O)Nc4cccnc4)c(Cl)c3)c21 :: 0

###

- System: CSNK1G1
- TEST CONTEXT: concentration: 1 μM, replicates: in singlicate; n = 1
Note to self: values exactly at 5% are true. So %Inh at or above 5% is true, below is false.

CCn1c(-c2ccncc2)nc2cnccc21 :: true
Cc1ccc(O)cc1Nc1cc(C(F)(F)F)nc2ccc(-c3ccncc3)cc12 :: true
Clc1cc(Nc2ncnc3cc[nH]c23)ccc1OCc1ccccn1 :: false
COc1ccc(Nc2nccc(N3CCC(NC(=O)Nc4ccc5c(c4)OCO5)C3)n2)cc1 (centres unmarked) :: false
N#Cc1ccc(Oc2ccc(Nc3ncnc4cc[nH]c34)cc2Cl)cc1 :: true
Cl.c1ccc(Cn2ncc3cc(Nc4ncnc5ccccc45)ccc32)cc1 :: true
O=C(Nc1ccccc1)Nc1ccc(Oc2ccc3nccn3n2)cc1 :: false
Nc1nccc2scc(-c3ccc4c(c3)CCN4C(=O)Cc3cc(F)ccc3F)c12 :: false
Fc1cccc(COc2ccc(Nc3ncnc4sc(-c5ccc[nH]5)cc34)cc2Cl)c1 :: false
Clc1ccc(-c2cc(-c3c[nH]nc3-c3ccccn3)ccn2)cc1 :: false
